- protocolSummary: soluble fraction after stress (log2 fold change); higher = more stays soluble; pooled small domains, quantitative proteomics
- runParameters: stress: pH 4
propertyLabel: soluble fraction (log2)
I only need the number, thanks.

For orientation, consider the following solved cases.
{"columns": ["recordSequence", "soluble fraction (log2)"],
 "data": [
  ["HMTEAVYMPALQNKTLEEAQRIVEQYDLELEYTYEANAQVEEGRILSQTPQMGVLVERGEKVQAVVSLG", -0.43],
  ["HMAKSETAKIKATPYGWLRVRDTPSLNGAEIARVNSGDEYKVLEKETGWIKIKVSDTVEGWVSDAYIELS", 0.16]
]}

Query :: Please report the measured soluble fraction (log2) for `HMKLGYTVHGNVVTVKAVANGISLYNTIGQKVAESTDGQTVKAPAHGVYILSVQGKSGSRETAKIVI`
Result :: 0.114

Query :: Note down soluble fraction (log2) recorded for `HMDLMKKTLTKEMLLIDFMKQQFPDSSTNKLRKMLSSGRVKINNLITHKAKSQLKLGDIFELANKPHD`
Result :: 0.124

Query :: Hello, please tell me recorded soluble fraction (log2) for this one: `HMNMVEESVKKSSQWAVFEPNTISTWVKIQAMIENYLYQKWKEGALAGAKPEHAFFVKVGLGETM`
Result :: 0.0622

Query :: Answer with the recorded soluble fraction (log2) for the sequence listed here: `HMRMSLDEAKAVVLPIGEYKGRNMGEVLAIKPELIDFYASQKFNSSKYPYLKEAAQVILENQ`
Result :: 0.0219

* * *

- protocolSummary: soluble fraction after stress (log2 fold change); higher = more stays soluble; pooled small domains, quantitative proteomics
- runParameters: stress: pH 4
propertyLabel: soluble fraction (log2)
Quick one: just the number, no unit, thanks!

Query :: Tell us which soluble fraction (log2) value is on record for `HMHRTMFYLDVDLAEGQSVKMAVHEDDDPGELAARFADEHQLKSRAMEKLRSVIEENVRLHRRNQ`
Result :: -0.306

Query :: Could you please provide reported soluble fraction (log2) for `HMQQELDAFKLLITVSGVGPKAAMAVLSVLPPDRLSIAVSSGDVKSIQSAQGVGKKTAERIVLELKDKM` ? Thanks!
Result :: -0.976

Query :: Hello, please tell me recorded soluble fraction (log2) for this one: `HMIDTTKILPGQEFKNMQELSVALTGQKMPAGKGYVLQQEKFKLYFSWKKITGTHKLIIDEIYEEPKT`
Result :: -0.573

Query :: Read the entry `HMANYTVNAYNNGGTGGSVNMRSGPSTNDGIVVRVPHGATVTGTKSGTWSYMTYNTYTGYMMSVYLDEQS` and write its reported soluble fraction (log2).
Result :: -0.0556

Query :: Note soluble fraction (log2) for the sequence shown: `HMSSSDYDVYNKAINLMLNLLKEPKSIEEVTASLNITKSQAITWINRALNEGKIIKTNRPVRYVVNN`
Result :: 0.0142

* * *

Listed below: soluble fraction (log2) values for each entry.
- protocolSummary: soluble fraction after stress (log2 fold change); higher = more stays soluble; pooled small domains, quantitative proteomics
- runParameters: stress: pH 4

{"columns": ["recordSequence", "propertyLabel", "result"],
 "data": [
  ["HMKNLTEVEYSEFLESIAQDRVSKVQVDGLIIRGEMNDGQRFETVQPQVTDKALIDDMVNHRVDFSGARP", "soluble fraction (log2)", -0.726],
  ["HMNTDALIGKTGYVTEIVGERHGRIQFSGGEWSARTEGVSIPVGAEVRVDRIDGATAVVSAV", "soluble fraction (log2)", 0.22],
  ["HMIKDSKAAYKILGVDENATNEEIKKAYRQLVINHHPDKVSHLGEDIQRAANEKLKQINAAYDEIKKQRGF", "soluble fraction (log2)", 0.171],
  ["HMRIEDTMDYINKIKEKLKNNGGVITSKEFTRSNIPTIYLTRMVETGELIRIDRGIYINSSG", "soluble fraction (log2)", -0.462]
]}

Query :: Identify the reported soluble fraction (log2) for the following entry. `HMAEPEALLAMAQRILGEEVAQSLFQGAAREQGKEGYLPDPTPAFLDALEARLSGSVGAATAHAMISQLVG`
Result :: -0.473

Query :: Fill in soluble fraction (log2) for record `HMIELDRTNLLGVFGPKSRPYALLMLSNGEMIKISIGDQFFGWRVYGIDEKSIQVQNGTKQEILRIP`
Result :: -1.19

Query :: Recall and state the measured soluble fraction (log2) for `HMHSKQRDAIFENLRSRKDHPTAEEIYLSLKPAMPAISLATVYRNLAQLENEGLILRLGSGGSARYDGDT` .
Result :: 0.164

Query :: Using the record for `HMKHAIKEKIRNEYVHGYLNEEGYRVMPTLDELIRKYEVPASSTYRASSKEGWKKQKEAFLEHLRGEIDA` , state its measured soluble fraction (log2).
Result :: -0.0601

Query :: Report measured soluble fraction (log2); entry is `HMFSMKDFGQRLRQLRKERGLTQGDLARLAKIDIMQVSRYERGLGLPSLETAIALARVLETSTDLLFLG`
Result :: -0.0792

Query :: Please look at this sequence and report its soluble fraction (log2): `HMFRMTPQRMAILAEVQNAERHLTAAEIYERVRRKYPTIAYGTVYRTLHLLAKHGLIQEFPFGDNASLFDR`
Result :: -0.0123

Query :: Report measured soluble fraction (log2); entry is `HMLHMKAALGELMSIPGMRSELAGTLFDRGYTSLAQLRAATLDDLERVNGLERADARRIHDFLRKS`
Result :: -0.066

Query :: Please supply the value of reported soluble fraction (log2) for the item `HMDTDWDVSGVTPDQYRLLFSVLGGLAGVKDVGLNPDGLRIIHTPEALPSIEKAFQANGLKLKRNVD`
Result :: -0.899

Query :: Give a short answer stating reported soluble fraction (log2) for `HMLTDAAAVKRSVRNLVQYGFYEKPFHPEIGSGVRDLLFENMTPFVANNLSKQIEEIITNYEPRA` .
Result :: -0.126

Query :: Fill in soluble fraction (log2) for record `HMEIYEEDRTKVVNDLMDQILNRQITMDAAATKFINIRNSLGTTITKEDEQNLEMLRGLIFDKT`
Result :: -1.17

Query :: Please indicate soluble fraction (log2) recorded for `HMNELTDKQILLFSNKLAHNIPFSSKYSKPGESYEEFAERLANELIDPQKVKLYKPYLEEVGFK`
Result :: 0.112

Query :: Look up and report measured soluble fraction (log2) for this entry: `HMNRKLKAKATREKIYKSAEKLFSQNDYNKVSVDAIVEAAGVAKGSFYVHFASKDALIAMLINDH`
Result :: -0.012
